# target or test system: furin, P09958;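 note: purified furin at 1:10 enzyme:substrate in 50 mM HEPES pH 7.5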
# Sequence (P09958 whole entry): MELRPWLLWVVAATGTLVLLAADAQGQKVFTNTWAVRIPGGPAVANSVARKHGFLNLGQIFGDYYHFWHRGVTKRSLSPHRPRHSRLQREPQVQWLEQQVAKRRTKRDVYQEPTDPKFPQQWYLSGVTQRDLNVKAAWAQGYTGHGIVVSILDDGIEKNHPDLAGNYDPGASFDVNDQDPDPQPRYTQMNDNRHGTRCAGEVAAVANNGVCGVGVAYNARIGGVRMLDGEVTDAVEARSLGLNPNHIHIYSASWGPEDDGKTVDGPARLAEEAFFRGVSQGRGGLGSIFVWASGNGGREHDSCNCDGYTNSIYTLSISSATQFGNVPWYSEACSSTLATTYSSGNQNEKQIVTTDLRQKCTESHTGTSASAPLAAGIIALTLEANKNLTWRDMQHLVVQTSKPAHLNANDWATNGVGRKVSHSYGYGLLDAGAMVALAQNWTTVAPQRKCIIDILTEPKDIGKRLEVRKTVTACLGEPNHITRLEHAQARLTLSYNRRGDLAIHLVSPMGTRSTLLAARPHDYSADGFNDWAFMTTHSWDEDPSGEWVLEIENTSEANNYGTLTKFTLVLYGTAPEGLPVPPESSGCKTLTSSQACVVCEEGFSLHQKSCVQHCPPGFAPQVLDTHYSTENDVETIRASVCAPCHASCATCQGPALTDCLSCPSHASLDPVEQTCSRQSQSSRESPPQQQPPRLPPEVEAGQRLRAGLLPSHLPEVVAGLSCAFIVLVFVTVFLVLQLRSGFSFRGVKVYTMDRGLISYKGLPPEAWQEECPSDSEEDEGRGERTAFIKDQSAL
# test summary: furin cleavage Z-score vs untreated control; higher = more cleavage, active = 3.5 or more, inactive = 1 or less, 8 variable residues between constant flanks
# test settings: 7.5 min
This is one part of the list. The hit rate among all sequences tested is not known here.
recorded metric: furin cleavage Z-score
Lab note: jot the number down without any unit.

Prompt line: Given the entry CARRFRSVPRAGNASASA [FS-2369] , report its measured furin cleavage Z-score.
Response line: -0.464

Prompt line: Please give the result for CARSRRQDVRAGNASASA [FS-2818] too.
Response line: 1.35

Prompt line: Please give the result for CARERRSEEPAGNASASA [FS-1890] too.
Response line: -0.884

Prompt line: Please give the result for CATFHKAEYRAGNASASA [EK4] too.
Response line: -1.71

Prompt line: Please give the result for CARFYRYMGRAGNASASA [FS-2141] too.
Response line: 0.0635

Prompt line: Please give the result for CARFRKAYKPAGNASASA [FS-2926] too.
Response line: 0.349

Prompt line: Please give the result for CADFVRSITPAGNASASA [FS-1878] too.
Response line: -0.721
